Biological target: EPHB1 (UniProt P54762)
Sequence (P54762 whole entry, looked up): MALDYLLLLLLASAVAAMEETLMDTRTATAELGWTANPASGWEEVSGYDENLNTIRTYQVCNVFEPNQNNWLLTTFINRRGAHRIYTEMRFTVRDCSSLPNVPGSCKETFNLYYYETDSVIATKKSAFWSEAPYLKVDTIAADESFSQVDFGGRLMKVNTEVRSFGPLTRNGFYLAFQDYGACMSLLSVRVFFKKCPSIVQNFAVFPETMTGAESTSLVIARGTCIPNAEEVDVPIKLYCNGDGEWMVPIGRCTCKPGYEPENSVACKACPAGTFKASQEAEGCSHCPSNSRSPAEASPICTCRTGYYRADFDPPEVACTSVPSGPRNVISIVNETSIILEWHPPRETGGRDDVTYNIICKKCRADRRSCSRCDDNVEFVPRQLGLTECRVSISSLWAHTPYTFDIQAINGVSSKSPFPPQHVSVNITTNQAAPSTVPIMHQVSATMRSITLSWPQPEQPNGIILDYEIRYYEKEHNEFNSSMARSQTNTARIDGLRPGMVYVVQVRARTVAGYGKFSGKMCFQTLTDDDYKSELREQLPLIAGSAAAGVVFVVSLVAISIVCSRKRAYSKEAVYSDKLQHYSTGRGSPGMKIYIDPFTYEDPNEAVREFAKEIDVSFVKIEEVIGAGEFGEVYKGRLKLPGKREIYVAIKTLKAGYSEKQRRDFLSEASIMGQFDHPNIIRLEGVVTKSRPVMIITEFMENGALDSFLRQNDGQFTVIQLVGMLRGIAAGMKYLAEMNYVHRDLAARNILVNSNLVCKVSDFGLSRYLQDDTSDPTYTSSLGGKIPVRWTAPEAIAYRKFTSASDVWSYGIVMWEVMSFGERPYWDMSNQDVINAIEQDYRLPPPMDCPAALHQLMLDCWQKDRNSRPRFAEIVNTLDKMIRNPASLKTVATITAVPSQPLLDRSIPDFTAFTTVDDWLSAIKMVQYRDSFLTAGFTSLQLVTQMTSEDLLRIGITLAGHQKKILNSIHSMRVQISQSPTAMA
Assay: phosphorylation enrichment, bacterial display (enrichment ratio); higher = better substrate or ligand; peptides without Tyr show the background;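 note: 11-residue human phosphosite peptides and single-mutation variants displayed on the E. coli surface, counted by deep sequencing, each peptide's frequency after selection divided by its frequency in the unselected input library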;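 note: frequency after pTyr selection over input frequency; kinase dosed for 20-30% of maximal phosphorylation in three min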
Label 0.0 if phosphorylation enrichment falls below 0.7; label 1.0 in every other case.

Some solved entries appear below for comparison.
GIKAAYEAELG [LMNA_Y81]	0.0
AKLDEYIAIAK [RCOR3_Y46]	0.0
SVTCTFSPALN [TP53_Y126_Y126F]	1.0
DDPRTYQKYGY [OAS1_Y362_R361T]	0.0

[Q] Form field: phosphorylation enrichment at least 0.7? Entry: GHLYANDWISI [BEST1_Y227_Y227N]
[A] 1.0

[Q] Now consider VATRWYQSPEL [CDKL5_Y177_R178Q] .
[A] 0.0

[Q] Now consider HITQVYGFYDE [PPP2CA_Y127_Q122H] .
[A] 1.0

[Q] Now consider LQTFRYHGHSM [PDHA1_Y289_YF] .
[A] 1.0

[Q] Now consider LESILYESSVV [TRPV4_Y91_T89I] .
[A] 0.0

[Q] Now consider CTTIHYNFICN [TP53_Y234_M237I_YF] .
[A] 0.0

[Q] Now consider IKAGAYDFPSP [CAMK2A_Y230] .
[A] 0.0

[Q] Now consider LQFRNYQQLFD [MAN2A1_Y442_K440R] .
[A] 1.0

[Q] Now consider YDCGMYSHLQG [LGR4_Y848] .
[A] 1.0

[Q] Now consider MHFSNYVSKGS [PDGFRA_Y849_D846Y_YF] .
[A] 0.0

[Q] Now consider SRDDFYETIAM [NPY1R_Y347_D346Y_YF] .
[A] 1.0

[Q] Now consider HFGCVYHGTLL [MET_Y1093] .
[A] 1.0

[Q] Now consider DDLEVYLKHLL [SACS_Y3477] .
[A] 0.0

[Q] Now consider CLAKMYFSAVD [CP_Y539_YF] .
[A] 0.0

[Q] Now consider DYSLKYPTDIP [APC_Y1183_A1184P] .
[A] 0.0

[Q] Now consider LSIWPYLQKID [MFSD8_Y63_M58L] .
[A] 1.0

[Q] Now consider ERWLKYFPIEQ [HS3ST5_Y244] .
[A] 0.0

[Q] Now consider VIESSYTSADG [DHCR7_Y382_C380S] .
[A] 0.0

[Q] Now consider GISDEYHVIQH [GCDH_Y398_R402Q] .
[A] 0.0

[Q] Now consider DQLVKYGVNPG [TMPO_Y127] .
[A] 0.0

[Q] Now consider ADKAAYLQSMN [MYH2_Y389_L393M] .
[A] 0.0

[Q] Now consider QYNMQYSSSAA [ERBB2IP_Y981_I979M] .
[A] 0.0

[Q] Now consider CRVEPYGENFN [APOA4_Y310_R305C] .
[A] 0.0

[Q] Now consider DPEATYTTSGS [EPHA2_Y772_G777S] .
[A] 0.0

[Q] Now consider SLHPGYNFRFA [P2RX7_Y291_Y288H_YF] .
[A] 0.0

---

Target: Fes (UniProt P07332)
Sequence (P07332 whole entry, looked up): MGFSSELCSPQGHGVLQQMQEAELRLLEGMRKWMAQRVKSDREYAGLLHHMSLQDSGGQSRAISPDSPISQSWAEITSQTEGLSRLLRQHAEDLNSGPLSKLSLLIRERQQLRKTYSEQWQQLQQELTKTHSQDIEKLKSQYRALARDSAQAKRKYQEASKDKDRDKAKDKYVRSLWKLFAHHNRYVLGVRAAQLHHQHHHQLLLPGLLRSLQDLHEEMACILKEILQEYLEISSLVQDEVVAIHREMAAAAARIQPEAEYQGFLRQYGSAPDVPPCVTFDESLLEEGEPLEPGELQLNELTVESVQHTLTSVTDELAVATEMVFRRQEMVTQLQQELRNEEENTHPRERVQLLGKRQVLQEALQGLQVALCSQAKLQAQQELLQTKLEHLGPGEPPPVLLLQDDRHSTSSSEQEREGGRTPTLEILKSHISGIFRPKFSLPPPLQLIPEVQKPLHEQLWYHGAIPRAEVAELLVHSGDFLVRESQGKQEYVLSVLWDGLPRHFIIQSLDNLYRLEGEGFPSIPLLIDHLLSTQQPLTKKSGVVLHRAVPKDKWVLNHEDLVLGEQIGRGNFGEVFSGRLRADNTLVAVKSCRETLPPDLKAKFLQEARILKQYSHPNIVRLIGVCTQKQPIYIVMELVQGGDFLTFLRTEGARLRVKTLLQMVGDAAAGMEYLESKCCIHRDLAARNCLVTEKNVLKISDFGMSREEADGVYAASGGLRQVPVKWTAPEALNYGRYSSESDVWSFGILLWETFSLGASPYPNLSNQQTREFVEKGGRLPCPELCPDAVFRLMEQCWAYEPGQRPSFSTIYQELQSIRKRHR
Test: phosphorylation enrichment, bacterial display (enrichment ratio); higher = better substrate or ligand; peptides without Tyr show the background
Measured phosphorylation enrichment values are reported for all entries that follow.
The answer should be a number; do not append a unit.

Reference set, count: 3
KFGTNYRVGSS [CPO_Y278_YF]	0.803
RGYRQYAYDGK [HLA-A_Y140_D140Y]	0.474
LGRGKYSEVFE [CSNK2A1_Y50]	1.19

[Q] Please report the recorded phosphorylation enrichment for KKKKQYKGKYL [CASK_Y708_D710G] .
[A] 0.582

[Q] Now consider KFDLMYAKHAF [TUBA1A_Y399_R402H] .
[A] 0.987

[Q] Now consider AIIGIYILRDN [CDH23_Y2949_D2954N] .
[A] 1.39

[Q] Now consider YSKDIYKRVTG [PANK2_Y405_N404I] .
[A] 0.51

[Q] Now consider QRRLIYRCQVG [NR2E3_Y81_R76Q] .
[A] 0.861

[Q] Now consider KPGVNYFFQVS .
[A] 1.38

Where do the numbers come from? From the supplement of paper PMC10065799.
